System: WPMY1-GM130-SQSTM1
assay-details: phenotypically active (imaging signature differs from DMSO and reproducible) at any of 0.3-9 uM (binary (1 = active, 0 = inactive)); higher = active
test-parameters: treatment time: 24 h
Counter-ions that a name gives are not always drawn.
List of phenotypically active values.

Would you please look over these solved cases?
Exercise: Bench note: what phenotypically active did COC(=O)[C@@H]1[C@H]2C[C@H]3c4[nH]c5ccccc5c4CCN3C[C@@H]2CC[C@@H]1O [Yohimbine hydrochloride] show?
Key: 1 (active)

Exercise: Could you tell me which phenotypically active is on file for CCCc1nc(C)c2c(C)nc3ccc(OC)nc3n12 ?
Key: 0 (inactive)

Exercise: Reported phenotypically active, compound CCN1C(=O)NC(c2ccccc2)C1=O (centres undefined) [ethotoin] : ____
Key: 0 (inactive)

Exercise: Need phenotypically active, item Cn1cccc1/C=C1\C(=O)NC(=O)c2ccccc21
Key: 0 (inactive)

Exercise: Bench note: what phenotypically active did COc1cc(O)cc(O)c1C(=O)/C=C/c1ccccc1 [Cardamonin] show?
Key: 1 (active)

Exercise: # input compound: CC(=O)/N=c1/sc(S(N)(=O)=O)nn1C [methazolamide] ; wanted: its phenotypically active
Key: 0 (inactive)

Exercise: For C=C[C@H]1CN2CC[C@H]1C[C@H]2[C@H](O)c1ccnc2ccc(OC)cc12 [Quinine dihydrochloride] , what is its reported phenotypically active?
Key: 0 (inactive)

Exercise: Quick check: phenotypically active of CCC(C)(C)C(=O)O[C@H]1C[C@@H](C)C=C2C=C[C@H](C)[C@H](CC[C@@H]3C[C@@H](O)CC(=O)O3)[C@H]21 [Simvastatin] ?
Key: 1 (active)

Further cases:
Exercise: What measured phenotypically active goes with CCN1CCN(C(c2cccnc2)c2cc(Cl)c3cccnc3c2O)CC1 (centres undefined) ?
Key: 0 (inactive)
